- Target Under Test: recombinant protein KIF18A (kinesin domain: aa 1-467) (Homo sapiens (Human), UniProt Q8NI77)
- Sequence (Q8NI77 1-467): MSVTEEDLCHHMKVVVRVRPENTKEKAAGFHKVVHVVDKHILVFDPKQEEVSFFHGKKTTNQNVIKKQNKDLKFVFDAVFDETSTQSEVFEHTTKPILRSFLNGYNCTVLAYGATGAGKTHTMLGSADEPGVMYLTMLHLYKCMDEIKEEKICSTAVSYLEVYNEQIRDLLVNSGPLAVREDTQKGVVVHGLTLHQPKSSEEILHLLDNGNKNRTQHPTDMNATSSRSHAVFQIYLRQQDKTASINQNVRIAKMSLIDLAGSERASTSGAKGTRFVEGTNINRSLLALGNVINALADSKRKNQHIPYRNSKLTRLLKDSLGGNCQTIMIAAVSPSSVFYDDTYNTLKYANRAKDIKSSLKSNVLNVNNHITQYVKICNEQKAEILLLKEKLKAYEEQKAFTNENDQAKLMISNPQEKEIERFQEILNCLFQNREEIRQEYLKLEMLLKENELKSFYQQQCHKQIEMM
- Sequence (P02550 whole entry partner, the tested form may be a part): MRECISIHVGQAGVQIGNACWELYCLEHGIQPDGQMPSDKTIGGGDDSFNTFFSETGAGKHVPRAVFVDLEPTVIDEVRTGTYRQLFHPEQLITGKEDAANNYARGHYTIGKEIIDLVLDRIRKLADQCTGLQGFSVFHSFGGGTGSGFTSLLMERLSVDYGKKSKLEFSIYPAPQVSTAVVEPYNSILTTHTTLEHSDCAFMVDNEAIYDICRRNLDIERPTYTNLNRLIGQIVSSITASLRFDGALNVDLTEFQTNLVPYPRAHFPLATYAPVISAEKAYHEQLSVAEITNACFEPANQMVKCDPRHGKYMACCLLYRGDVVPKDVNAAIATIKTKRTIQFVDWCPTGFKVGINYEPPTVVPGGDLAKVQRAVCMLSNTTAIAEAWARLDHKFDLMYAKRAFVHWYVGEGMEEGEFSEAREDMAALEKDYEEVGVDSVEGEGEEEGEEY
- Sequence (P02554 whole entry partner, the tested form may be a part): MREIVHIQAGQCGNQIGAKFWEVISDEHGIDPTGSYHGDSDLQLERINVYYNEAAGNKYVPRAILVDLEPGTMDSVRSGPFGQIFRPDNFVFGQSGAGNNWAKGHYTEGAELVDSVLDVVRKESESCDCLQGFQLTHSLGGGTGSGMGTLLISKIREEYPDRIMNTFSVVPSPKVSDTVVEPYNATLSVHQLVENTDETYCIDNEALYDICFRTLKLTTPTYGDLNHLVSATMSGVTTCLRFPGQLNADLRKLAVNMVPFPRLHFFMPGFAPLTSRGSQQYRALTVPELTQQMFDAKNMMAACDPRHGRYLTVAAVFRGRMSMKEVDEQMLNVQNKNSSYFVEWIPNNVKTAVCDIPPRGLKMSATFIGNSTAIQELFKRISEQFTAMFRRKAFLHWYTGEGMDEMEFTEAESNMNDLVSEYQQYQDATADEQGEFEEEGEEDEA
- Assay Name: Assay on inhibition of KIF18A enzymatic activity (ADP-Glo)
- Format: biochemical
- Applied Conditions: KIF18A 80 nM, ATP 80 μM, 3 h at room temperature, ADP-Glo luminescence; read-out: IC50 (μM), inhibitory effects of compounds on KIF18A enzymatic activity
- Description: The recombinant protein KIF18A (kinesin domain: aa 1-467) used in this assay was expressed by the Bac-to-Bac baculovirus expression system from Invitrogen, and the resulting protein was purified for use in this assay (Seki, M. et al. 2003 Nucleic Acids Res.). Quantitative detection of KIF18A enzymatic activity was completed using an ADP-Glo™ kinase assay kit (Promega Inc). Related procedures strictly followed the product instructions, which are briefly described as follows: […]
In this section, each of the compounds is paired with its reported IC50.
Write it as a number; the unit µM goes unstated.

[
  {
    "Compound": "Cc1cc(-c2nnc(-c3ccc(NS(=O)(=O)CCO)cc3N3CCC4(CC3)CC4)o2)nc(N2CCC(C(F)(F)F)C2)n1 (stereo not drawn) [Example I-98]",
    "Unit Abbrev": "µM",
    "IC50": 0.018
  }
]

[Q] # input compound: Cc1cc(-c2nnc(-c3ccc(NS(=O)(=O)CCO)cc3N3CCC4(CC3)CC4)o2)nc(N2CCCC(F)C2)n1 (stereo not drawn) [Example I-102] ; wanted: its IC50
[A] 0.004

[Q] # input compound: Cc1cc(-c2nnc(-c3ccc(NS(=O)(=O)CCO)cc3N3CCC4(CC3)CC4)o2)nc(N2C[C@@H](F)[C@@H](F)C2)n1 [Example I-101] ; wanted: its IC50
[A] 0.008

* * *

- Target Under Test: recombinant protein KIF18A (kinesin domain: aa 1-467) (Homo sapiens (Human))
- Assay Name: Assay on inhibition of KIF18A enzymatic activity (ADP-Glo)
- Format: biochemical
- Applied Conditions: KIF18A 80 nM, ATP 80 μM, 3 h at room temperature, ADP-Glo luminescence; read-out: IC50 (μM), inhibitory effects of compounds on KIF18A enzymatic activity
Property Label: IC50 (µM)
Write it as a number; the unit µM goes unstated.

Record excerpt, results attached:
[
  {
    "Compound": "Cc1cc(-c2cnn(-c3ccc(NS(=O)(=O)CCO)cc3N3CCC(C)CC3)c2)nc(N2CCC(F)(F)CC2)n1",
    "IC50 / µM": 0.005
  },
  {
    "Compound": "Cc1cc(-c2nnc(-c3ccc(NS(=O)(=O)CCO)cc3N3CCC4(CC3)CC4)o2)nc(N2CC3C(C2)C3(F)F)n1 (stereo not shown)",
    "IC50 / µM": 0.001
  },
  {
    "Compound": "Cc1cc(-c2nnc(-c3ccc(NS(=O)(=O)CCO)cc3N3CCC4(CC3)CC4)o2)nc(N2CCC(F)(F)CC2)c1",
    "IC50 / µM": 0.004
  }
]

For the next question, use this compound.
[Q] # input compound: "CCc1cc(-c2cnn(-c3ccc(NS(=O)(=O)CCO)cc3N3CCC4(CC3)CC4)c2)nc(N2CCC(F)(F)CC2)n1" ; wanted: its IC50
[A] 0.002

* * *

- Target Under Test: recombinant protein KIF18A (kinesin domain: aa 1-467) (Homo sapiens (Human))
- Assay Name: Assay on inhibition of KIF18A enzymatic activity (ADP-Glo)
- Type: biochemical
- Applied Conditions: KIF18A 80 nM, ATP 80 μM, 3 h at room temperature, ADP-Glo luminescence; read-out: IC50 (μM), inhibitory effects of compounds on KIF18A enzymatic activity
Checkbox rule: IC50 lower than 0.007 µM = true; IC50 not lower than 0.007 µM = false.

[Q] Confirm or reject: IC50 of Cc1cc(-c2cnn(-c3ccc(NS(=O)(=O)CCO)cc3N3CCC(C)(F)CC3)c2)nc(N2CCC(F)(F)CC2)n1 [Example I-117] lies strictly below 0.007 µM
[A] false

[Q] Confirm or reject: IC50 of O=S(=O)(CCO)Nc1ccc(-n2cc(-c3ccnc(N4CCC(F)(F)CC4)n3)cn2)c(N2CCC3(CC2)CC3)c1 [Example I-109] lies strictly below 0.007 µM
[A] true

[Q] Confirm or reject: IC50 of Cc1cc(-c2cnn(-c3ccc(NS(=O)(=O)CCO)cc3N3CCC4(CC3)CC4)c2)nc(C2CCC(F)(F)CC2)n1 [Example I-110] lies strictly below 0.007 µM
[A] true

[Q] Confirm or reject: IC50 of Cc1cc(-c2nnc(-c3ccc(NS(=O)(=O)CCO)cc3N3CCC4(CC3)CC4)o2)nc(N2CC3CC3C2)n1 (stereo not shown) [Example I-86] lies strictly below 0.007 µM
[A] true

[Q] Confirm or reject: IC50 of Cc1cc(-c2nnc(-c3ccc(NS(=O)(=O)CCO)cc3N3CCC4(CC3)CC4)o2)nc(N2CC(F)(F)CC(F)(F)C2)n1 [Example I-100] lies strictly below 0.007 µM
[A] false

* * *

- Target Under Test: recombinant protein KIF18A (kinesin domain: aa 1-467) (Homo sapiens (Human))
- Assay Name: Assay on inhibition of KIF18A enzymatic activity (ADP-Glo)
- Assay type: biochemical
- Applied Conditions: KIF18A 80 nM, ATP 80 μM, 3 h at room temperature, ADP-Glo luminescence; read-out: IC50 (μM), inhibitory effects of compounds on KIF18A enzymatic activity
Lab note: class by IC50, see bin 0 = under 0.002 µM, bin 1 = from 0.002 µM up to 0.01 µM, bin 2 = 0.01 µM and over

[
  {
    "Compound": "Cc1cc(-c2nnc(-c3ccc(NS(=O)(=O)CCO)cc3N3CCC4(CC3)CC4)o2)nc(N2CCO[C@H](C)C2)c1",
    "Label Class": "bin 2"
  },
  {
    "Compound": "Cc1cc(-c2nnc(-c3ccc(NS(=O)(=O)[C@H](C)CO)cc3N3CCC4(CC3)CC4)o2)nc(N2CCC(F)(F)CC2)n1",
    "Label Class": "bin 2"
  },
  {
    "Compound": "O=c1ccc(-c2cnn(-c3ccc(NS(=O)(=O)CCO)cc3N3CCC4(CC3)CC4)c2)nn1C1CC(F)(F)C1",
    "Label Class": "bin 1"
  },
  {
    "Compound": "Cc1cc(-c2cnn(-c3ccc(NS(=O)(=O)CCO)cc3N3CCC4(CC3)CC4)c2)nc(OCCC(F)(F)F)n1",
    "Label Class": "bin 1"
  },
  {
    "Compound": "O=S(=O)(CCO)Nc1ccc(-n2cc(-c3nc(N4CCC(F)(F)CC4)ncc3F)cn2)c(N2CCC3(CC2)CC3)c1",
    "Label Class": "bin 1"
  },
  {
    "Compound": "Cc1cc(-c2nnc(-c3ccc(NS(=O)(=O)CCO)cc3N3CCC4(CC3)CC4)o2)nc(N2CCC(C(F)(F)F)C2)c1 (centres unmarked)",
    "Label Class": "bin 2"
  },
  {
    "Compound": "Cc1cc(-c2cn(-c3ccc(NS(=O)(=O)CCO)cc3N3CCC4(CC3)CC4)nn2)nc(N2CCC(F)(F)CC2)n1",
    "Label Class": "bin 1"
  },
  {
    "Compound": "Cc1cc(-c2nnc(-c3ccc(NS(=O)(=O)CCO)cc3N3CCC4(CC3)CC4)o2)nc(N2CCCC(F)(F)C2)n1",
    "Label Class": "bin 0"
  },
  {
    "Compound": "Cc1cc(-c2nnc(-c3ccc(NS(=O)(=O)CCO)cc3N3CCC4(CC3)CC4)o2)nc(N2CCC(F)(F)C2)n1",
    "Label Class": "bin 1"
  },
  {
    "Compound": "Cc1cc(-c2cnn(-c3ccc(NS(=O)(=O)CCO)cc3N3CCC(F)(F)CC3)c2)nc(N2CCC(F)(F)CC2)n1",
    "Label Class": "bin 2"
  }
]

[Q] Sort into band: "O=S(=O)(CCO)Nc1ccc(-n2cc(-c3ncnc(N4CCC(F)(F)CC4)n3)cn2)c(N2CCC3(CC2)CC3)c1"
[A] bin 1

[Q] Sort into band: "Cc1cc(-c2nnc(-c3ccc(NS(=O)(=O)CCO)cc3N3CCC4(CC3)CC4)o2)nc(N2CC(F)(F)C2)n1"
[A] bin 2

[Q] Sort into band: "Cc1cc(-c2cnn(-c3ccc(NS(=O)(=O)CCO)cc3N3CCC4(CC3)CC4)c2)nc(N2CCCC2)n1"
[A] bin 2

[Q] Sort into band: "O=S(=O)(CCO)Nc1ccc(-n2cc(-c3cc(C(F)F)nc(N4CCC(F)(F)CC4)c3)cn2)c(N2CCC3(CC2)CC3)c1"
[A] bin 1

* * *

- Target Under Test: recombinant protein KIF18A (kinesin domain: aa 1-467) (Homo sapiens (Human), UniProt Q8NI77)
- Assay Name: Assay on inhibition of KIF18A enzymatic activity (ADP-Glo)
- Format: biochemical
- Applied Conditions: KIF18A 80 nM, ATP 80 μM, 3 h at room temperature, ADP-Glo luminescence; read-out: IC50 (μM), inhibitory effects of compounds on KIF18A enzymatic activity
Checkbox rule: IC50 lower than 0.002 µM = Fulfilled; IC50 not lower than 0.002 µM = Not fulfilled.

[
  {
    "Compound": "Cc1cc(-c2nnc(-c3ccc(NS(=O)(=O)CCO)cc3N3CCC4(CC3)CC4)o2)nc(N2CCC3(CC3)C2)n1 [Example I-17]",
    "Label Class": "Not fulfilled"
  }
]

[Q] Confirm or reject: IC50 of Cc1cc(-c2nnc(-c3ccc(NS(=O)(=O)CCO)cc3N3CCC4(CC3)CC4)o2)cc(N2CCC(F)(F)CC2)n1 [Example I-52] lies strictly below 0.002 µM
[A] Fulfilled

[Q] Confirm or reject: IC50 of Cc1cc(-c2nnc(-c3ccc(NS(=O)(=O)CCO)cc3N3CCC4(CC3)CC4)s2)nc(N2CCCC(F)(F)C2)n1 [Example I-85] lies strictly below 0.002 µM
[A] Not fulfilled

[Q] Confirm or reject: IC50 of Cc1cc(-c2cnn(-c3ccc(NS(=O)(=O)[C@H](C)CO)cc3N3CCC4(CC3)CC4)c2)nc(N2CCC(F)(F)CC2)n1 [Example I-111] lies strictly below 0.002 µM
[A] Not fulfilled

[Q] Confirm or reject: IC50 of Cc1cc(-c2nnc(-c3ccc(NS(=O)(=O)CCO)cc3N3CCC4(CC3)CC4)o2)nc(N2CCCC(C(F)(F)F)C2)c1 (stereo not drawn) [Example I-103] lies strictly below 0.002 µM
[A] Not fulfilled

[Q] Confirm or reject: IC50 of Cc1cc(-c2nnc(-c3ccc(NS(=O)(=O)CCO)cc3N3CCC4(CC3)CC4)o2)nc(OCCC(F)(F)F)n1 [Example I-27] lies strictly below 0.002 µM
[A] Fulfilled
